Target: human Cav2.2 (Homo sapiens)
Test: Assessment of calcium channel activity using FLIPR (Ca2+ influx in IMR32 cells)
Type: cell-based
Settings: 3 minute pre-incubation with compound (*), 2 μM nifedipine, depolarized with 80 mM KCl
Measurement kind: IC50 (µM)

Solved cases below.
• O=C(N[C@@H]1CC[C@H]2CN(Cc3ccccc3)C[C@H]21)C1(c2ccccc2)CCCCC1 (relative stereo) [Example 10] = 1.3
• CC(C)C(C(=O)N[C@H]1CC[C@@H]2CN(CCCc3cccc(Cl)c3)C[C@@H]21)c1ccccc1 (some centres unmarked) [Example 109] = 9

a: O=C(N[C@@H]1CC[C@H]2CN(Cc3ccccc3)C[C@H]21)C1CCCCCC1 [Example 22]
b: O=C(N[C@H]1CC[C@@H]2CN(Cc3ccccc3)C[C@@H]21)C(C1CCCCC1)C1CCCCC1 [Example 40]
c: Cc1cccc(CCCN2C[C@H]3CC[C@H](NC(=O)C(c4ccccc4)C(C)C)[C@H]3C2)c1 (some centres unmarked) [Example 110]
List these items ordered by IC50, big to small. Your reply should list the labels following the order given in the request.
a, b, c

a: CC(C)(C)C(Cc1ccccc1)C(=O)N[C@H]1CC[C@@H]2CN(Cc3ccccc3)C[C@@H]21 (some centres unmarked) [Example 49]
b: O=C(N[C@H]1CC[C@H]2CN(Cc3ccccc3)C[C@H]21)C1(c2ccccc2)CCCCC1 (relative stereo) [Example 9]
Select one. Lower IC50: a or b API: response body contains the label of the selected item.
b

###

Molecular target: human Cav2.2 (Homo sapiens, UniProt Q00975)
Sequence (Q00975 whole entry): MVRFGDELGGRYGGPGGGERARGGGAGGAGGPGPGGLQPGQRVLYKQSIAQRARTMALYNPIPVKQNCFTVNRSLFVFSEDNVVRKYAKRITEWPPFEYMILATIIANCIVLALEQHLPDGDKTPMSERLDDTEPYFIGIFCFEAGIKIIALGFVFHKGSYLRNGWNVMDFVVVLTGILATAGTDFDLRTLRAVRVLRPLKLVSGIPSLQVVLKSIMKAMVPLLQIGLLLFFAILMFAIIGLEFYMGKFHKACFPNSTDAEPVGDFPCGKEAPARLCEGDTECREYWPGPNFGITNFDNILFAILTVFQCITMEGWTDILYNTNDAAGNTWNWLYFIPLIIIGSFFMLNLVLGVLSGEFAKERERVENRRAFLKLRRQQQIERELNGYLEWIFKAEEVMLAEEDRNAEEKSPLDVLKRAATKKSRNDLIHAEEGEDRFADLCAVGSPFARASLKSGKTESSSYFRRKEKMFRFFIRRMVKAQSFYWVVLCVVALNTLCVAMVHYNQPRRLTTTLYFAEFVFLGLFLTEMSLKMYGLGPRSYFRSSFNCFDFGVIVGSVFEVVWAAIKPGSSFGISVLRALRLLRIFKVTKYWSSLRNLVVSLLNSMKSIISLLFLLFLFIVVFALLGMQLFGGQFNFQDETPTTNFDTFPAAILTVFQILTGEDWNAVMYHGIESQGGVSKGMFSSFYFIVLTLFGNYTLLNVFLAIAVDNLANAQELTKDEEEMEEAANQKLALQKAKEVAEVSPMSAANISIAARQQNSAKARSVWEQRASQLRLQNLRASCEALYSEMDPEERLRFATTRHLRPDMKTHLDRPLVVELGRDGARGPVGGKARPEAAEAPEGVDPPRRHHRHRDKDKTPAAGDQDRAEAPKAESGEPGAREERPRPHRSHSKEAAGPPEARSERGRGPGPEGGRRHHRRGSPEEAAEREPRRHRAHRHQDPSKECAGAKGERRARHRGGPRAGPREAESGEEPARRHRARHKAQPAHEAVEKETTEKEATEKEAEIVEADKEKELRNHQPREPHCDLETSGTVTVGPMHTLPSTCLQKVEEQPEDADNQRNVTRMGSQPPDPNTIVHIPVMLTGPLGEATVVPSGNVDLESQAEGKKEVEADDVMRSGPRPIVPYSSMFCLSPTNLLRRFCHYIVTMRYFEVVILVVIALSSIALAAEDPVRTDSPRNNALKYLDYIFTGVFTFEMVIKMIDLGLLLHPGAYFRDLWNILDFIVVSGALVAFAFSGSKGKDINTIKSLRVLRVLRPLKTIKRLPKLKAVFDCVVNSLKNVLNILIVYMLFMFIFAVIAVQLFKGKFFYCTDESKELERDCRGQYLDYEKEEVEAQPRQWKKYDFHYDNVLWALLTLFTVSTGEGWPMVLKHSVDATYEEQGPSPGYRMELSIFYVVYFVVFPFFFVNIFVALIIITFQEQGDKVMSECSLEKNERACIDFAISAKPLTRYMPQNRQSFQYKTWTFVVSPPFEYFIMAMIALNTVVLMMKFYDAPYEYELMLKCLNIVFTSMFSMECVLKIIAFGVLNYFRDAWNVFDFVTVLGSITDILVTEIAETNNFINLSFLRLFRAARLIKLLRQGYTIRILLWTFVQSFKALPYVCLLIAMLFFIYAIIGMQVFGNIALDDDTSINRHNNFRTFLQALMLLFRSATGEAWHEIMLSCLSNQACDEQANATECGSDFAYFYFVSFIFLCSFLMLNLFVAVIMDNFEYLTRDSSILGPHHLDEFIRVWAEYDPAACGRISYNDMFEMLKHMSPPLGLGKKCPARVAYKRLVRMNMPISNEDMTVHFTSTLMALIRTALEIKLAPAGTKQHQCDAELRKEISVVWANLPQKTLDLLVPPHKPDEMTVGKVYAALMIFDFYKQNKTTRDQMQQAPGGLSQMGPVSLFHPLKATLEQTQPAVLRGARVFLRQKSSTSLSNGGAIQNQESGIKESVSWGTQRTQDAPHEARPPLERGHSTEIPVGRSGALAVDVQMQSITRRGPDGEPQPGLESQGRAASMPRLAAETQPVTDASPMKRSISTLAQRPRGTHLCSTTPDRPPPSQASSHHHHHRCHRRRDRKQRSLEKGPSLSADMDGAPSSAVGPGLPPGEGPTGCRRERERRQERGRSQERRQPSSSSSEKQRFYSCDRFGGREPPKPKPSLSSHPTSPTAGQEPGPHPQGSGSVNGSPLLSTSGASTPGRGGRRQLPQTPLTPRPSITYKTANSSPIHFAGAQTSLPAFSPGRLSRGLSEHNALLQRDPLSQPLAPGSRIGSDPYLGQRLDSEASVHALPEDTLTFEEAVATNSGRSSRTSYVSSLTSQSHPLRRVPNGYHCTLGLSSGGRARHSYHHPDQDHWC
Sequence (P54289 25-946 partner limits assumed): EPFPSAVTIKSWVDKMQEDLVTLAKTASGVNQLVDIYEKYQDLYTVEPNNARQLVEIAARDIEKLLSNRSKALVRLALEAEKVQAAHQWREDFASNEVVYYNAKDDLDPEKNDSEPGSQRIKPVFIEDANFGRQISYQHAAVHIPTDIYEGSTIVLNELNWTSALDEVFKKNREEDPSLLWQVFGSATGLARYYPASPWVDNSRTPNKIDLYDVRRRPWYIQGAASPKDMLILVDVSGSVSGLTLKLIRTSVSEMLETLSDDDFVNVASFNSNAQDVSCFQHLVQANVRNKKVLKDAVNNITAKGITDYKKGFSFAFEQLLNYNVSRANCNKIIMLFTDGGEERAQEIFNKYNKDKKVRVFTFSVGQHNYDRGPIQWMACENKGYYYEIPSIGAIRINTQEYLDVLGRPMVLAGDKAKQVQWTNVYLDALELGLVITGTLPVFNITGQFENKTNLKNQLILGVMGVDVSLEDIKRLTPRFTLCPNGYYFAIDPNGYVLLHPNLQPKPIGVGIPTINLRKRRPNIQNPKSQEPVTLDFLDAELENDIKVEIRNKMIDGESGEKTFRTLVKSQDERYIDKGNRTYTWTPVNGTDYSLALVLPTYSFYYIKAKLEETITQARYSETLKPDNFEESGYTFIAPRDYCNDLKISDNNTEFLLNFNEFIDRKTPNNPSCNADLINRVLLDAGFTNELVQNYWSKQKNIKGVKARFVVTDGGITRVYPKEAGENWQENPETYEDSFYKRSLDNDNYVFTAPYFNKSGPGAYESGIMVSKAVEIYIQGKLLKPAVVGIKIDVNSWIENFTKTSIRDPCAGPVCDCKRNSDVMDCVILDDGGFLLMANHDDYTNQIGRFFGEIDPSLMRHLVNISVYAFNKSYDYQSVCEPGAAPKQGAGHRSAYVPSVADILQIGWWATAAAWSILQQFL
Sequence (P54289 947-1103 partner limits assumed): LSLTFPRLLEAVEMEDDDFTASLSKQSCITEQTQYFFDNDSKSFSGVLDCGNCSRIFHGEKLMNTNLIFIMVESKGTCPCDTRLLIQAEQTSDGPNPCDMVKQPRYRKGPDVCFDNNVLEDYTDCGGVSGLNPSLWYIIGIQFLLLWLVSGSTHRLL
Sequence (P54284 whole entry partner): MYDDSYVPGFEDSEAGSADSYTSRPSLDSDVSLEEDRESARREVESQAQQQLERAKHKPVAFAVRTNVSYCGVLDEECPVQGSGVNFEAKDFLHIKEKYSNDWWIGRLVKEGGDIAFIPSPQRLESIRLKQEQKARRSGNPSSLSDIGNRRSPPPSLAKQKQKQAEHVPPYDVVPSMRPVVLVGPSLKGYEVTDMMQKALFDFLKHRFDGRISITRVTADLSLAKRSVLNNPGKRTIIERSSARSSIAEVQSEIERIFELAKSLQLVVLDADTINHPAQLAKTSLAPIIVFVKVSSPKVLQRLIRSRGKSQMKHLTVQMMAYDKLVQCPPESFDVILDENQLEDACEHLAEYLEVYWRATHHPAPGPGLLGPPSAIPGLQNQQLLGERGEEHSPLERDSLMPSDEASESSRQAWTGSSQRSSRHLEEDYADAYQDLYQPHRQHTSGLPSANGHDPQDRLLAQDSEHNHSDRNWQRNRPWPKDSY
Experiment: Assessment of calcium channel activity using FLIPR (Ca2+ influx in IMR32 cells)
Format: cell-based
Conditions: 60 minute pre-incubation with compound, 2 μM nifedipine, depolarized with 80 mM KCl
pIC50: −log10 of the molar value.
Measurement kind: pIC50

- CC(C)OC(=O)N[C@@H](CC(C)(C)C)C(=O)N[C@H]1CC[C@@H]2CN(Cc3ccc(C(F)(F)F)cc3)C[C@@H]21 [Example 525]: 5.86
- CN[C@@H](CC(C)C)C(=O)N[C@@H]1CC[C@H]2CN(S(=O)(=O)c3cccc(F)c3)C[C@H]21 [Example 443]: 5.11
- CC(C)N[C@@H](CC(C)(C)C)C(=O)N[C@H]1CC[C@@H]2CN(c3cccc(C(F)(F)F)n3)C[C@@H]21 [Example 491]: 6.59
- CC(C)(C)OC(=O)N[C@H](C(=O)N[C@@H]1CC[C@H]2CN(Cc3ccccc3)C[C@H]21)C(C)(C)C [Example 234]: 5.13
- CC(C)N[C@H]1CC[C@@H]2CN(S(=O)(=O)c3ccc(C(F)(F)F)cc3)C[C@@H]21 [Example 283]: 5.06

P: CC(C)N([C@H]1CC[C@@H]2CN(Cc3ccccc3)C[C@@H]21)S(=O)(=O)c1cccc(C(F)(F)F)c1 [Example 555]
Q: CCC[C@@H](C(=O)N[C@H]1CC[C@@H]2CN(S(=O)(=O)c3cccnc3)C[C@@H]21)N(C)C(=O)OC(C)(C)C [Example 530]
Select one. Lower pIC50: P or Q API: response body contains the label of the selected item.
Q
(Q: 5.12, P: 5.60)

P: O=S(=O)(N[C@@H]1CC[C@@H]2CN(Cc3cccc(C(F)(F)F)c3)C[C@@H]21)c1cccc(C(F)(F)F)c1 [Example 188]
Q: CC(C)(C)C[C@H](NC1CC1)C(=O)N[C@H]1CC[C@@H]2CN(S(=O)(=O)c3ccc(C(F)(F)F)cc3)C[C@@H]21 [Example 499]
R: CCN[C@@H](CC(C)C)C(=O)N[C@H]1CC[C@@H]2CN(Cc3cccc(C(F)(F)F)c3)C[C@@H]21 [Example 366]
S: CC(C)C[C@@H](C(=O)N[C@@H]1CC[C@H]2CN(S(=O)(=O)c3cccc(C(F)(F)F)c3)C[C@H]21)N(C)C [Example 512]
Rank the items in ascending order with respect to pIC50. Your reply should list the labels following the order given in the request.
R, Q, P, S
(R: 5.28, Q: 5.57, P: 6.10, S: 6.33)

P: CC(C)(C)C[C@H](NC(=O)OC(C)(C)C)C(=O)N[C@H]1CC[C@@H]2CN(c3ccc(C(F)(F)F)cn3)C[C@@H]21 [Example 262]
Q: CC(C)C[C@@H](NS(C)(=O)=O)C(=O)N[C@H]1CC[C@@H]2CN(Cc3cccc(C(F)(F)F)c3)C[C@@H]21 [Example 517]
R: CCCN(C(=O)[C@H](CC(C)(C)C)N(C)C(=O)OC(C)(C)C)[C@H]1CC[C@@H]2CN(S(=O)(=O)c3ccc(C(F)(F)F)cc3)C[C@@H]21 [Example 297]
Rank the items in ascending order with respect to pIC50. Your reply should list the labels following the order given in the request.
R, Q, P
(R: 5.10, Q: 5.35, P: 5.74)

meta.source: patent US8129417B2
